# target or system: CV S-protein construct 6 trimer TP31001F (SARS-CoV-2, UniProt P0DTC2 14-1208)
# protocol details: SPR
Our labelling divides records by Kd into ranges: one (below 0.6 nM), two (0.6 nM to below 10 nM), three (10 nM or more)

Example entries begin here.
| binder | answer label |
| --- | --- |
| variant 6-23 (Fc fusion) VHH: EVQLVESGGGLVQPGGSLRLSCAASGSIFSMNTMGWFRQAPGKEREFVALINRSGGGINYADSVKGRFTISADNSKNTAYLQMNSLKPEDTAVYYCVRLSSGYYDFDYWGQGTLVTVSS | one |
| variant 6-54 (Fc fusion) VHH: EVQLVESGGGLVQPGGSLRLSCAASGFEFENHWMGWFRQAPGKEREYVAHITAGGLSNYADSVKGRFTISADNSKNTAYLQMNSLKPEDTAVYYCGRHWGIYDSSGFSSFDYWGQGTLVTVSS | two |
| variant 6-44 (Fc fusion) VHH: EVQLVESGGGLVQPGGSLRLSCAASGGTFGVYHMGWFRQAPGKEREFIGRITWTDGSTYYADSVKGRFTISADNSKNTAYLQMNSLKPEDTAVYYCFGLLEVYDMTFDYWGQGTLVTVSS | two |
| variant 6-31 (Fc fusion) VHH: EVQLVESGGGLVQPGGSLRLSCAASGDTFSANRMGWFRQAPGKEREFVASITWSSANTYYADSVKGRFTISADNSKNTAYLQMNSLKPEDTAVYYCATFNWNDEGFDFWGQGTLVTVSS | three |
| variant 6-112 (Fc fusion) VHH: EVQLVESGGGLVQPGGSLRLSCAASGGTFSAYHMGWFRQAPGKERELVTIIDNGGPTSYADSVKGRFTISADNSKNTAYLQMNSLKPEDTAVYYCTALLYYFDNSGYNFDPFDIWGQGTLVTGSS | three |

Challenge: Sort variant 6-74 (Fc fusion) VHH: EVQLVESGGGLVQPGGSLRLSCAASGFAFGDSWMGWFRQAPGKERELVAAITSGGSTDYADSVKGRFTISADNSKNTAYLQMNSLKPEDTAVYYCARGLLWFGELFGYWGQGTLVTVSS into one of the categories.
Response given: three

Challenge: Now the binder variant 6-73 (Fc fusion, VHH-Fc) VHH: EVQLVESGGGLVQPGGSLRLSCAASGHTFSGYAMGWFRQAPGKEREFVAVITREGSTYYADSVKGRFTISADNSKNTAYLQMNSLKPEDTAVYYCARLGGEGFDYWGQGTLVTVSS
Response given: one

Challenge: Now the binder variant 6-49 (Fc fusion) VHH: EVQLVESGGGLVQPGGSLRLSCAASGSTVLINAMGWFRQAPGKEREFVAAISWSPGRTDYADSVKGRFTISADNSKNTAYLQMNSLKPEDTAVYYCARDCSGGSCYSGDYWGQGTLVTVSS
Response given: two
